Where do the numbers come from? From patent US20070032529A1.

Target: recombinant human liver glycogen phosphorylase (Homo sapiens, UniProt P06737)
Construct: made in house; host or cells: Sf9 insect cells (crude homogenate, diluted, used as the enzyme solution)
Sequence (P06737 1-847): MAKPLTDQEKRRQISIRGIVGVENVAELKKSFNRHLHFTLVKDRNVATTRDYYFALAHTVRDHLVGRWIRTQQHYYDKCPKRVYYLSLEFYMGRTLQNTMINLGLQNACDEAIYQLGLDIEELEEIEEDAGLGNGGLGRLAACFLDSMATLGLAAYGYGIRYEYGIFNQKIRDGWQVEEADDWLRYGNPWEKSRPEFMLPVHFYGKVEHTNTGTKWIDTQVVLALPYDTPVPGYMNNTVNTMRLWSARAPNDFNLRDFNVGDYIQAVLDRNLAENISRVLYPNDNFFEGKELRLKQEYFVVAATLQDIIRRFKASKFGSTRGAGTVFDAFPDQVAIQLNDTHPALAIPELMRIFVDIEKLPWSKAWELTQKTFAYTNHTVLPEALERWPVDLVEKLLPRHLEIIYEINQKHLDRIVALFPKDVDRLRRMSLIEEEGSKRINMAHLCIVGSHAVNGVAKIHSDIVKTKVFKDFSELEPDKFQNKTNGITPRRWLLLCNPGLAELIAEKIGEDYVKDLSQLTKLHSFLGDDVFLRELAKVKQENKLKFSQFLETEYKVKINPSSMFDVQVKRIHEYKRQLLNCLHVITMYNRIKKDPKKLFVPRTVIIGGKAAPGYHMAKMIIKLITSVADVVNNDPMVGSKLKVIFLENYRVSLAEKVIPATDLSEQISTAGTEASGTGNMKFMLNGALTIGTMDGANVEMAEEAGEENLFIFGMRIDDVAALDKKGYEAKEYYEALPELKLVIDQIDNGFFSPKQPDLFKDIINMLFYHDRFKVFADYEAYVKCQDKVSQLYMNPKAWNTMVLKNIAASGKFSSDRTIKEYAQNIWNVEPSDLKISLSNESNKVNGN
Assay: Measuring liver glycogen phosphorylase activity (forward reaction system, NADPH absorbance at 340 nm)
Assay type: biochemical
Conditions: compound concentration 100 nmol (in parentheses)
Each entry below lists one item and its recorded inhibition rate (%) at a certain concentration value.

Answered cases to consult:
{"Chemical String": "O=C(Nc1cccc2ncccc12)c1cc(NC(=O)c2cc(F)c(F)cc2Cl)[nH]n1", "Value Reported": "17.8% (100)"}
{"Chemical String": "CCOC(=O)C(C)(C)c1cnc(NC(=O)c2cc(NC(=O)c3cc(F)c(F)cc3Cl)[nH]n2)c(OCC)c1", "Value Reported": "20.8%(100)"}
{"Chemical String": "O=C(Nc1cccc2cnccc12)c1cc(NC(=O)c2cc(F)c(F)cc2Cl)[nH]n1", "Value Reported": "15.2% (100)"}

# inhibition rate (%) at a certain concentration lookup, item O=C(Nc1cccc2cccnc12)c1cc(NC(=O)c2cc(F)c(F)cc2Cl)[nH]n1
22.3% (100)

Do the same for CCOc1cc(C(C)(C)C(=O)O)cnc1NC(=O)c1cc(NC(=O)c2cc(F)c(F)cc2Cl)[nH]n1 please
13.3%(100)
